This collection of values is drawn from patent US12398107B2.

System: Septoria tritici
Assay: Test A: wheat leaf blotch, preventive spray on wheat seedlings
Format: in vivo
Details: 50 ppm, 100 = 100% disease control, 0 = no control relative to controls
MEASURE_NAME: Test A disease control rating (wheat leaf blotch)

Suppose we examine the compound `Cc1nn(C)c(Nc2c(Cl)cccc2[N+](=O)[O-])c1-c1c(F)cc(F)cc1Br` ; what Test A disease control rating (wheat leaf blotch) value has been reported? 99%

Quick one: Test A disease control rating (wheat leaf blotch) of `Cc1cc(Cl)c(Nc2c(-c3ccc(Cl)cc3Cl)c(C)nn2C)c([N+](=O)[O-])c1` ? 98%

Looking for the measured Test A disease control rating (wheat leaf blotch) of `Cc1nn(C)c(Nc2c(F)cc(Cl)cc2[N+](=O)[O-])c1-c1ccc(F)cc1F` , can you help? 100%

Sample `Cc1cccc([N+](=O)[O-])c1Nc1c(-c2ccc(C#N)cc2Cl)c(C)nn1C` — what was its Test A disease control rating (wheat leaf blotch)? 100%

# input compound: `Cc1nn(C)c(Nc2ccccc2[N+](=O)[O-])c1-c1c(F)cc(F)cc1Br` ; wanted: its Test A disease control rating (wheat leaf blotch) 99%

What value of measured Test A disease control rating (wheat leaf blotch) is listed for `Cc1nn(C)c(Nc2c(Cl)cc(Cl)cc2[N+](=O)[O-])c1-c1c(F)cccc1F` ? 100%

Using the record for `Cc1nn(C)c(Nc2ccccc2[N+](=O)[O-])c1-c1c(F)cc(F)cc1F` , report its Test A disease control rating (wheat leaf blotch). 100%

Sample `Cc1nn(C)c(Nc2ccc(OC(F)F)cc2[N+](=O)[O-])c1-c1ccc(F)cc1Cl` — what was its Test A disease control rating (wheat leaf blotch)? 91%

Find the recorded Test A disease control rating (wheat leaf blotch) belonging to `COc1cc(F)c(-c2c(C)nn(C)c2Nc2c(Cl)cccc2[N+](=O)[O-])c(F)c1` and report it. 98%

Fill in the blank: the reported Test A disease control rating (wheat leaf blotch) of `Cc1nn(C)c(Nc2c(Cl)cccc2[N+](=O)[O-])c1-c1ccc(C#N)cc1Cl` is ____. 100%

Sample `COc1ccc(-c2c(C)nn(C)c2Nc2c(F)cc(Cl)cc2[N+](=O)[O-])c(Cl)c1` — what was its Test A disease control rating (wheat leaf blotch)? 100%

State the recorded Test A disease control rating (wheat leaf blotch) for this entry: `Cc1cccc([N+](=O)[O-])c1Nc1c(-c2c(F)cc(F)cc2Br)c(C)nn1C` 100%

Request the reported Test A disease control rating (wheat leaf blotch) associated with `Cc1nn(C)c(Nc2ccccc2[N+](=O)[O-])c1-c1c(F)cc(Cl)cc1F` 100%

Would you kindly share the measured Test A disease control rating (wheat leaf blotch) for `Cc1nn(C)c(Nc2c(F)cccc2[N+](=O)[O-])c1-c1c(F)cc(Cl)cc1F` ? 100%

I'd like to know its Test A disease control rating (wheat leaf blotch). The compound in question is `Cc1nn(C)c(Nc2c(Cl)cc(F)cc2[N+](=O)[O-])c1-c1c(F)cccc1F` 100%

Quick one: Test A disease control rating (wheat leaf blotch) of `Cc1ccc(Nc2c(-c3c(F)cccc3F)c(C)nn2C)c([N+](=O)[O-])c1` ? 99%

Endpoint output: Test A disease control rating (wheat leaf blotch) of `Cc1nn(C)c(Nc2c(F)cc(F)cc2[N+](=O)[O-])c1-c1ccc(C#N)cc1Cl` . Value? 100%

Reported Test A disease control rating (wheat leaf blotch) for `COc1cc(F)c(-c2c(C)nn(C)c2Nc2c(F)cc(F)cc2[N+](=O)[O-])c(F)c1` : what is it? 100%

Could you tell me which Test A disease control rating (wheat leaf blotch) is on file for `Cc1nn(C)c(Nc2c(Cl)cc(F)cc2[N+](=O)[O-])c1-c1ccc(Cl)cc1Cl` ? 100%

Find the recorded Test A disease control rating (wheat leaf blotch) belonging to `COc1cc(F)c(-c2c(C)nn(C)c2Nc2ccc(OC)cc2[N+](=O)[O-])c(F)c1` and report it. 100%

Data request, read-out Test A disease control rating (wheat leaf blotch), for `COc1ccc(Nc2c(-c3c(F)cc(F)cc3F)c(C)nn2C)c([N+](=O)[O-])c1` 100%

Suppose we examine the compound `Cc1cc(F)c(Nc2c(-c3ccc(F)cc3Br)c(C)nn2C)c([N+](=O)[O-])c1` ; what Test A disease control rating (wheat leaf blotch) value has been reported? 100%

// query Test A disease control rating (wheat leaf blotch) value for entry `Cc1nn(C)c(Nc2ccccc2[N+](=O)[O-])c1-c1c(F)cc(F)cc1Cl` 100%

Look up Test A disease control rating (wheat leaf blotch): `COc1ccc(-c2c(C)nn(C)c2Nc2c(F)cc(F)cc2[N+](=O)[O-])c(Cl)c1` 100%

Name the recorded Test A disease control rating (wheat leaf blotch) for `COc1ccc(Nc2c(-c3c(F)cc(C#N)cc3F)c(C)nn2C)c([N+](=O)[O-])c1` . 100%

Would you mind telling me what Test A disease control rating (wheat leaf blotch) value was observed for `Cc1nn(C)c(Nc2c(Cl)cccc2[N+](=O)[O-])c1-c1c(F)cccc1F` ? 100%

Entry `CCc1nn(C)c(Nc2ccc(OC)cc2[N+](=O)[O-])c1-c1ccc(F)cc1Cl` : reported Test A disease control rating (wheat leaf blotch) = ? 100%

Consider the compound `Cc1nn(C)c(Nc2c(Br)cccc2[N+](=O)[O-])c1-c1ccc(C#N)cc1Cl` and give its measured Test A disease control rating (wheat leaf blotch). 100%
